- TESTED_ON: T1, hmm.hTfRC (REGN2431) (human, UniProt P02786 89-760)
- T1 construct: also called hmm.hTfR(C89-F763); His-myc-myc-hTFRC ecto
- PROCEDURE_TEXT: blocking ELISA; Hmm-hTFRC + supernatant on plate-bound holo-Tf
Flag rule - % Blocking less than 9% flags 1 (yes); the remaining entries get 0 (no).

Qu. is_below(% Blocking, 9%) for 12799B scFv (VH-VK) (scFv) QITLKESGPTLVKPTQTLTLTCTFSGFSLSTSGVGVVWIRQPPGKALEWLALIYWNDHKRYSPSLGSRLTITKDTSKNQVVLTMTNMDPVDTATYYCAHYSGSYSYYYYGLDVWGQGTTVTVSSDIQMTQSPSSVSASVGDRVTITCRASQGIASWLAWYQQKPGKAPELLIYAASSLQGGVPSRFSGSGSGTDFTLTISSLQPEDFAIYYCQQANYFPWTFGQGTKVEIK ?
Ans. 0 (no)

Qu. Please do the same for 12798B scFv (VH-VK) (scFv) EVQLVESGGDLVQPGRSLRLSCAASGFTFDDYAMHWVRQAPGKGLEWVSGISWNSATRVYADSVKGRFTISRDNAKNFLYLQMNSLRSEDTALYHCAKDMDISLGYYGLDVWGQGTTVTVSSEIVMTQSPATLSVSPGERATLSCRASQTVSSNLAWYQQKPGQAPRLLIYGSSSRATGIPARFSGSGSGTEFTLTISSLQSEDFAVYYCQQYNNWPPYTFGQGTKLEIK as well.
Ans. 1 (yes)

Qu. Please do the same for 12812B scFv (VH-VK) (scFv) QVQLVQSGAEVKKPGSSVRVSCKASRGTFSSYAISWVRQAPGQGLEWMGGIIPIFGTANYAQKFLARVTITADESTSTAYMELSSLRSEDTAVYYCAREKGWNYFDYWGQGTLVTVSSDIQMTQSPPSVSASVGDRVTITCRASQGISSWLAWYQQKPGKAPKLLIYAASSLQSGVPSRFSGSGSGTDFTLTISSLQPEDFATYYCQQANSFPRTFGQGTKVEIK as well.
Ans. 0 (no)

Qu. Please do the same for 12802B scFv (VH-VK) (scFv) QVQLVESGGGLVKPGGSLRLSCAASGFTFSDYFMSWIRQAPGKGLEWVSYISSTGSTINYADSVKGRFTISRDNVKNSLYLQMTSLRVEDTAVYYCTRDNWNYEYWGQGTLVTVSSEIVMTQSPATLSVSPGERATLSCRASQSVSINLAWYQQKPGQAPRLLIFVASTRATGIPARFSGSGSGTEFTLTISSLQSEDFATYYCQQYDIWPYTFGQGTKLEIK as well.
Ans. 0 (no)

// data source = patent US20250041455A1
